The values you see were collected from the supplement of paper PMC10307832.

# Tested on: COR-L23
# protocol.notes: relative viability (nuclei count vs DMSO), 5 days (fraction); higher = more cells survive
# condition.set: first compound 0.03162 µM

[
  {
    "compound": "Cc1cn(-c2cc(NC(=O)c3ccc(C)c(Nc4nccc(-c5cccnc5)n4)c3)cc(C(F)(F)F)c2)cn1 [Nilotinib] + C[C@@H](Oc1cc(-c2cnn(C3CCNCC3)c2)cnc1N)c1c(Cl)ccc(F)c1Cl [Crizotinib] (partner 1 µM)",
    "target.under.test": "COR-L23",
    "relative viability": 0.465
  },
  {
    "compound": "Cc1cn(-c2cc(NC(=O)c3ccc(C)c(Nc4nccc(-c5cccnc5)n4)c3)cc(C(F)(F)F)c2)cn1 [Nilotinib] + CC1(C)CCC(c2ccc(Cl)cc2)=C(CN2CCN(c3ccc(C(=O)NS(=O)(=O)c4ccc(N[C@H](CCN5CCOCC5)CSc5ccccc5)c(S(=O)(=O)C(F)(F)F)c4)cc3)CC2)C1 [Navitoclax] (partner 0.5 µM)",
    "target.under.test": "COR-L23",
    "relative viability": 0.953
  },
  {
    "compound": "Cc1cn(-c2cc(NC(=O)c3ccc(C)c(Nc4nccc(-c5cccnc5)n4)c3)cc(C(F)(F)F)c2)cn1 [Nilotinib] + Nc1ncn([C@H]2C[C@H](O)[C@@H](CO)O2)c(=O)n1 [Decitabine] (partner 2 µM)",
    "target.under.test": "COR-L23",
    "relative viability": 0.482
  },
  {
    "compound": "Cc1cn(-c2cc(NC(=O)c3ccc(C)c(Nc4nccc(-c5cccnc5)n4)c3)cc(C(F)(F)F)c2)cn1 [Nilotinib] + Cc1cc(Nc2cc(N3CCN(C)CC3)nc(Sc3ccc(NC(=O)C4CC4)cc3)n2)n[nH]1 [Tozasertib] (partner 0.1 µM)",
    "target.under.test": "COR-L23",
    "relative viability": 0.158
  },
  {
    "compound": "Cc1cn(-c2cc(NC(=O)c3ccc(C)c(Nc4nccc(-c5cccnc5)n4)c3)cc(C(F)(F)F)c2)cn1 [Nilotinib] + COc1cccc2cc(-c3nc([C@H]4CC[C@H](C(=O)O)CC4)n4ncnc(N)c34)[nH]c12 [OSI-027] (partner 0.5 µM)",
    "target.under.test": "COR-L23",
    "relative viability": 0.462
  }
]
